Value source: paper PMC8427023

Run Description: Cytotoxicity assay (CellTiter-Glo 2.0) in Huh7 cells
Reported Conditions: human
Assay Readout: CC50
Quick note: number first, unit second.

CC50 reported for this compound CC(C)OC(=O)[C@H](C)N[P@](=O)(OC[C@H]1O[C@@H](n2ccc(=O)[nH]c2=O)[C@](C)(F)[C@@H]1O)Oc1ccccc1 [SOF, Sofosbuivir, reference compound] : 200 µM

---

Run Description: in vitro
Reported Conditions: human
Assay Readout: CC50 at 3 days (µM)
Write it as a number; the unit µM goes unstated.

CC50 at 3 days reported for this molecule Cc1nc(NC(=O)C(C)(C)C)sc1-c1csc(Nc2cccc(C(=O)O)c2)n1 [compound 1] : 36

CC50 at 3 days reported for this molecule Cc1nc(NC(=O)C(C)(C)C)sc1-c1csc(N(CC(C)(C)O)C2CCCCC2)n1 [4 d] : 23.8

CC50 at 3 days reported for this molecule CC(=O)c1cccc(N(CCO)c2nc(-c3sc(NC(=O)C(C)(C)C)nc3C)cs2)c1 [compound 2] : 17
